protocol_notes: Plasma pharmacokinetics in rabbits (LC-MS/MS)
Type: in vivo, rabbit
conditions_used: rabbit, plasma, intravenous, 10 mg/kg, 40 min; individual subjects
reported_endpoint: concentration at 40 min

Consider the compound "CCCc1cc(=O)oc2c(C(=O)N3CCCc4ccccc43)c(OCCN3CCN(C)CC3)ccc12" and give its measured concentration at 40 min.
3.47 µM

###

Listed here: items and their measured SRbeta (SRTOP2B), decatenation activity.
tgt: recombinant human TOP2B (Homo sapiens, UniProt Q02880)
Construct: Using recombinant full-length human TOP2A and TOP2B enzymes; YFP (N, cleaved yes); made in house; host or cells: HEK293F
Sequence (Q02880 1-1621 isoform Q02880-2): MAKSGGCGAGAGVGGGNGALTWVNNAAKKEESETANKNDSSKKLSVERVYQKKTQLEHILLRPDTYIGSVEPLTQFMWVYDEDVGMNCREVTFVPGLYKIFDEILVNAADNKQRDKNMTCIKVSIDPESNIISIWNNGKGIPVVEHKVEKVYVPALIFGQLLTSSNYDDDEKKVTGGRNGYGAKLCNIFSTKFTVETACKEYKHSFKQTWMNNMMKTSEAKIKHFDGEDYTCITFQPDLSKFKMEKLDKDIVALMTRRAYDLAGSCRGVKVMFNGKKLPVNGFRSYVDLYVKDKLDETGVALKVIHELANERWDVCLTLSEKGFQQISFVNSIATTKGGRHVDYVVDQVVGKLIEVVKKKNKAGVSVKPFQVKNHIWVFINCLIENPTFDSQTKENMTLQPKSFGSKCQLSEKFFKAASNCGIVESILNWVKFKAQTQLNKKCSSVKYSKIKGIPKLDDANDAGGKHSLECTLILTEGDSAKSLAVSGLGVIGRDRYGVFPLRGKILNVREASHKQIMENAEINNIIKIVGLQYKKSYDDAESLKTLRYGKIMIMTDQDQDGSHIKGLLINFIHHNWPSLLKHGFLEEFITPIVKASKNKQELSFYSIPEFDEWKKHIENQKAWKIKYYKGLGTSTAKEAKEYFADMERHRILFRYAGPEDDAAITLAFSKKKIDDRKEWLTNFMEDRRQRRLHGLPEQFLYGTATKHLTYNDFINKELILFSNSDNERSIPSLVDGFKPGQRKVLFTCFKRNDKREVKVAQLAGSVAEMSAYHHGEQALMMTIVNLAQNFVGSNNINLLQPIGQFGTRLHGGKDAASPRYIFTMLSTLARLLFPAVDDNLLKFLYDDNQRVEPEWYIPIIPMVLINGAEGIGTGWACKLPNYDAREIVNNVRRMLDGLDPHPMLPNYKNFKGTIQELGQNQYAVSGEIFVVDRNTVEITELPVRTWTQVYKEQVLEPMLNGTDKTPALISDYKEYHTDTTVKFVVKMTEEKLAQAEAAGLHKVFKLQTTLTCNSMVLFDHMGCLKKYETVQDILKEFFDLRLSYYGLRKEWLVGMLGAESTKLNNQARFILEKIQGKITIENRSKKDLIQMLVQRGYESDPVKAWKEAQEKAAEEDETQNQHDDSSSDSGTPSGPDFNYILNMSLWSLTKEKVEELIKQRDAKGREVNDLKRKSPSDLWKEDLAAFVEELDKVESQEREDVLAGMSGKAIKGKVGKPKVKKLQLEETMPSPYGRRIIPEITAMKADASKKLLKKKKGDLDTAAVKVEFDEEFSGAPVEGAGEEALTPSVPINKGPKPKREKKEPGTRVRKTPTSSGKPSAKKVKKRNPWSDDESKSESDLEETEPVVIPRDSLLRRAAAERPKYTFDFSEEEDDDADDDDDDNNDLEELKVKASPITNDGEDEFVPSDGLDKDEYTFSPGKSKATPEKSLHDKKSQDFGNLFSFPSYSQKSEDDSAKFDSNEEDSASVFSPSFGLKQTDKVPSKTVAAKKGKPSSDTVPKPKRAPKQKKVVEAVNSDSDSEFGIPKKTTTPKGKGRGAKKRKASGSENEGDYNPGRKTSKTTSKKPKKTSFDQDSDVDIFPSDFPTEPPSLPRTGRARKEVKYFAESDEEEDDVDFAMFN
protocol_notes: DNA decatenation assay, recombinant TOP2B
Type: biochemical
conditions_used: TOP2A IC50 divided by TOP2B IC50
// no unit, no text: just the number

Worked set:
Consider the molecule "CCCc1cc(=O)oc2c(C(=O)N3CCCc4ccccc43)c(OCCO)ccc12" and give its measured SRbeta (SRTOP2B), decatenation activity.
2.2

Consider the molecule "CCCc1cc(=O)oc2c(C(=O)N3CCCc4ccccc43)c(OC)cc(OC)c12" and give its measured SRbeta (SRTOP2B), decatenation activity.
1.6

Consider the molecule "CCCc1cc(=O)oc2c(C(=O)N3CCCc4ccccc43)c(OCCN3CCN(C)CC3)ccc12" and give its measured SRbeta (SRTOP2B), decatenation activity.
25

Next:
Consider the molecule "C[C@@H](CN1CC(=O)NC(=O)C1)N1CC(=O)NC(=O)C1" and give its measured SRbeta (SRTOP2B), decatenation activity.
0.75

###

protocol_notes: Plasma pharmacokinetics in rabbits (LC-MS/MS)
Assay type: in vivo, rabbit
conditions_used: rabbit, plasma, intravenous, 10 mg/kg, 10 min; individual subjects
reported_endpoint: concentration at 10 min
Output should be the measured figure followed by the unit it is expressed in.

Consider the molecule "CCCc1cc(=O)oc2c(C(=O)N3CCCc4ccccc43)c(OCCN3CCN(C)CC3)ccc12" and give its measured concentration at 10 min.
10.8 µM

###

System: neonatal rat ventricular cardiomyocytes (NVCM)
protocol_notes: Inherent toxicity (LDH release) in NVCM
Type: cell-based
Parameters: key: % of total LDH activity
conditions_used: compound alone 0.1 µM; NVCM; Suppl.Fig.4
reported_endpoint: LDH release (inherent toxicity), mean of independent replicates
// no unit, no text: just the number

Consider the compound "CCCOc1ccc2c(C)cc(=O)oc2c1C(=O)N1CCCc2ccccc21" and give its measured LDH release (inherent toxicity), mean of independent replicates.
13.7469

Consider the compound "CCCOc1ccc2c(CC)cc(=O)oc2c1C(=O)N1CCCc2ccccc21" and give its measured LDH release (inherent toxicity), mean of independent replicates.
14.2064

###

tgt: recombinant human TOP2B (Homo sapiens)
Construct: Using recombinant full-length human TOP2A and TOP2B enzymes; YFP (N, cleaved yes); made in house; host or cells: HEK293F
protocol_notes: In vitro ATPase activity of TOP2B (coupled assay)
Assay type: biochemical
conditions_used: TOP2A IC50 divided by TOP2B IC50
Listed here: items and their measured SRbeta (SRTOP2B), TOP2 ATPase activity.
// no unit, no text: just the number

Worked set:
Consider the compound CCCc1cc(=O)oc2c(C(=O)N3CCCc4ccccc43)c(O)ccc12 [2c] and give its measured SRbeta (SRTOP2B), TOP2 ATPase activity.
1.0

Consider the compound CCCc1cc(=O)oc2c(C(=O)N3CCCc4ccccc43)c(OC)ccc12 [3c] and give its measured SRbeta (SRTOP2B), TOP2 ATPase activity.
1.6

Consider the compound CCCc1cc(=O)oc2c(C(=O)N3CCCc4ccccc43)c(OCCN3CCN(C)CC3)ccc12 [topobexin (9)] and give its measured SRbeta (SRTOP2B), TOP2 ATPase activity.
12

Consider the compound CCc1cc(=O)oc2c(C(=O)N3CCCc4ccccc43)c(OCCO)ccc12 [5b] and give its measured SRbeta (SRTOP2B), TOP2 ATPase activity.
1.0

Consider the compound CCCOc1ccc2c(CCC)cc(=O)oc2c1C(=O)N1CCCc2ccccc21 [4c] and give its measured SRbeta (SRTOP2B), TOP2 ATPase activity.
2.2

Next:
Consider the compound CCCc1cc(=O)oc2c(C(=O)N3CCCc4ccccc43)c(OC)cc(OC)c12 [BNS-22] and give its measured SRbeta (SRTOP2B), TOP2 ATPase activity.
1.5

Consider the compound C[C@@H](CN1CC(=O)NC(=O)C1)N1CC(=O)NC(=O)C1 [dexrazoxane] and give its measured SRbeta (SRTOP2B), TOP2 ATPase activity.
0.89

Consider the compound CCCc1cc(=O)oc2c(C(=O)N3CCCc4ccccc43)c(OCCO)ccc12 [5c] and give its measured SRbeta (SRTOP2B), TOP2 ATPase activity.
3.8

###

protocol_notes: Plasma pharmacokinetics in rabbits (LC-MS/MS)
Assay type: in vivo, rabbit
conditions_used: rabbit, plasma, intravenous, 10 mg/kg, 360 min; individual subjects
reported_endpoint: concentration at 360 min (nM)
Give the value, in units of nM, as a plain number.

Consider the compound "CCCc1cc(=O)oc2c(C(=O)N3CCCc4ccccc43)c(OCCN3CCN(C)CC3)ccc12" and give its measured concentration at 360 min.
155

###

System: neonatal rat ventricular cardiomyocytes (NVCM)
protocol_notes: Protection against DAU-induced cytotoxicity (LDH release) in NVCM
Format: cell-based
Set-up: key: % of total LDH activity
conditions_used: compound 100 µM + DAU 1.2 µM
Method: The protective effects of the BNS-22 and newly prepared compounds were evaluated using primary cultures of neonatal rat cardiomyocytes isolated in house as previously described. […] The total LDH activity of each sample for normalization was measured after 1 h of incubation at 37 °C in lysis buffer (0.1 M potassium phosphate, 1% Triton X-100, 1 mM dithiothreitol (DTT), 2 mM EDTA, pH 7.8, 15 min in RT). […] The rate of NAD^+ reduction was monitored spectrophotometrically at 340 nm for 2 min. […]
One threshold, 40, splits the recorded Suppl.Fig.3 DAU-induced cytotoxicity (LDH release) in NVCM, mean of independent replicates values: lower ones are Satisfied, equal or higher ones are Not satisfied.

Please indicate whether the reported Suppl.Fig.3 DAU-induced cytotoxicity (LDH release) in NVCM, mean of independent replicates of CCCc1cc(=O)oc2c(C(=O)N3CCCc4ccccc43)c(OCCO)ccc12 [5c] is strictly below 40.
Satisfied

Please indicate whether the reported Suppl.Fig.3 DAU-induced cytotoxicity (LDH release) in NVCM, mean of independent replicates of CCCc1cc(=O)oc2c(C(=O)N3CCCc4ccccc43)c(O)ccc12 [2c] is strictly below 40.
Satisfied

Please indicate whether the reported Suppl.Fig.3 DAU-induced cytotoxicity (LDH release) in NVCM, mean of independent replicates of CCCCc1cc(=O)oc2c(C(=O)N3CCCc4ccccc43)c(OCCC)ccc12 [4d] is strictly below 40.
Not satisfied

Please indicate whether the reported Suppl.Fig.3 DAU-induced cytotoxicity (LDH release) in NVCM, mean of independent replicates of CCCOc1ccc2c(CCC)cc(=O)oc2c1C(=O)N1CCCc2ccccc21 [4c] is strictly below 40.
Not satisfied

Next:
Please indicate whether the reported Suppl.Fig.3 DAU-induced cytotoxicity (LDH release) in NVCM, mean of independent replicates of CCc1cc(=O)oc2c(C(=O)N3CCCc4ccccc43)c(O)ccc12 [2b] is strictly below 40.
Satisfied

Please indicate whether the reported Suppl.Fig.3 DAU-induced cytotoxicity (LDH release) in NVCM, mean of independent replicates of Cc1cc(=O)oc2c(C(=O)N3CCCc4ccccc43)c(O)ccc12 [2a] is strictly below 40.
Not satisfied

Please indicate whether the reported Suppl.Fig.3 DAU-induced cytotoxicity (LDH release) in NVCM, mean of independent replicates of Cc1cc(=O)oc2c(C(=O)N3CCCc4ccccc43)c(OCCO)ccc12 [5a] is strictly below 40.
Satisfied

Please indicate whether the reported Suppl.Fig.3 DAU-induced cytotoxicity (LDH release) in NVCM, mean of independent replicates of CCCCc1cc(=O)oc2c(C(=O)N3CCCc4ccccc43)c(OCCO)ccc12 [5d] is strictly below 40.
Not satisfied

Please indicate whether the reported Suppl.Fig.3 DAU-induced cytotoxicity (LDH release) in NVCM, mean of independent replicates of CCCOc1ccc2c(CC)cc(=O)oc2c1C(=O)N1CCCc2ccccc21 [4b] is strictly below 40.
Satisfied

Please indicate whether the reported Suppl.Fig.3 DAU-induced cytotoxicity (LDH release) in NVCM, mean of independent replicates of CCCCc1cc(=O)oc2c(C(=O)N3CCCc4ccccc43)c(OC)cc(OC)c12 [1d] is strictly below 40.
Not satisfied

###

System: neonatal rat ventricular cardiomyocytes (NVCM)
protocol_notes: Inherent toxicity (LDH release) in NVCM
Type: cell-based
conditions_used: NVCM, compound alone, n=4
reported_endpoint: LTC = lowest toxic concentration

Consider the molecule CCCCc1cc(=O)oc2c(C(=O)N3CCCc4ccccc43)c(OC)ccc12 [3d] and give its measured LTC = lowest toxic concentration.
> 30 µM

Consider the molecule CCCOc1ccc2c(C)cc(=O)oc2c1C(=O)N1CCCc2ccccc21 [4a] and give its measured LTC = lowest toxic concentration.
> 30 µM

Next:
Consider the molecule COc1ccc2c(C)cc(=O)oc2c1C(=O)N1CCCc2ccccc21 [3a] and give its measured LTC = lowest toxic concentration.
> 10 µM

Consider the molecule CCc1cc(=O)oc2c(C(=O)N3CCCc4ccccc43)c(OC)ccc12 [3b] and give its measured LTC = lowest toxic concentration.
> 10 µM

Consider the molecule CCCCc1cc(=O)oc2c(C(=O)N3CCCc4ccccc43)c(OC)cc(OC)c12 [1d] and give its measured LTC = lowest toxic concentration.
30 µM
